# Study Target: Smurf-1 (Homo sapiens (Human))
# Sequence (Q9HCE7 whole entry): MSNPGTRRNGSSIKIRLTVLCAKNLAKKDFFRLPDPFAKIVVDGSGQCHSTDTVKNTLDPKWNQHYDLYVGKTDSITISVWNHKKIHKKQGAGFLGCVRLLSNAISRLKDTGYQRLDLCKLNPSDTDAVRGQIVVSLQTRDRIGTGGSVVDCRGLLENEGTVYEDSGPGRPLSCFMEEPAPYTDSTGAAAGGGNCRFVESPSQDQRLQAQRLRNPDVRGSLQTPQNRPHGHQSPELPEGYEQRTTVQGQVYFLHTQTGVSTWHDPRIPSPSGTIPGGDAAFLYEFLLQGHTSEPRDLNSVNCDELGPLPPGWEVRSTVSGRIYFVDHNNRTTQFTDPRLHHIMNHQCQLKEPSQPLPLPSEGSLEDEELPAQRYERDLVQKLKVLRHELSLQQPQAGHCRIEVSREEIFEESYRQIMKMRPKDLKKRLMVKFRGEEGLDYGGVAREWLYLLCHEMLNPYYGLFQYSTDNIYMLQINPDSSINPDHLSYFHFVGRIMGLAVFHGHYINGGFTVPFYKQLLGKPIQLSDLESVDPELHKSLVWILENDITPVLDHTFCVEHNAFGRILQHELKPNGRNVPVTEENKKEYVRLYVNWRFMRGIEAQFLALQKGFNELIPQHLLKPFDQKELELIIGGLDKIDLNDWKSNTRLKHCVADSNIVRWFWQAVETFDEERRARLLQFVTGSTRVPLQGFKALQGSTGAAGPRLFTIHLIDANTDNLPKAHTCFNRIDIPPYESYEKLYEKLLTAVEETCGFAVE
Measured Endpoint: IC50
Express the reported value numerically, then name its unit.

Query Cc1c(C(=O)Nc2c(C)n(C)n(C(C)C)c2=O)noc1[C@@H]1CCC[C@H](C(C)(C)C)O1 (mixture of isomers) on Smurf-1 (Homo sapiens (Human)); IC50 returned: 980 nM
